Molecular target: human recombinant HDAC6 (Homo sapiens)
Construct: purchased Calbiochem 382180
Sequence (Q9UBN7 whole entry): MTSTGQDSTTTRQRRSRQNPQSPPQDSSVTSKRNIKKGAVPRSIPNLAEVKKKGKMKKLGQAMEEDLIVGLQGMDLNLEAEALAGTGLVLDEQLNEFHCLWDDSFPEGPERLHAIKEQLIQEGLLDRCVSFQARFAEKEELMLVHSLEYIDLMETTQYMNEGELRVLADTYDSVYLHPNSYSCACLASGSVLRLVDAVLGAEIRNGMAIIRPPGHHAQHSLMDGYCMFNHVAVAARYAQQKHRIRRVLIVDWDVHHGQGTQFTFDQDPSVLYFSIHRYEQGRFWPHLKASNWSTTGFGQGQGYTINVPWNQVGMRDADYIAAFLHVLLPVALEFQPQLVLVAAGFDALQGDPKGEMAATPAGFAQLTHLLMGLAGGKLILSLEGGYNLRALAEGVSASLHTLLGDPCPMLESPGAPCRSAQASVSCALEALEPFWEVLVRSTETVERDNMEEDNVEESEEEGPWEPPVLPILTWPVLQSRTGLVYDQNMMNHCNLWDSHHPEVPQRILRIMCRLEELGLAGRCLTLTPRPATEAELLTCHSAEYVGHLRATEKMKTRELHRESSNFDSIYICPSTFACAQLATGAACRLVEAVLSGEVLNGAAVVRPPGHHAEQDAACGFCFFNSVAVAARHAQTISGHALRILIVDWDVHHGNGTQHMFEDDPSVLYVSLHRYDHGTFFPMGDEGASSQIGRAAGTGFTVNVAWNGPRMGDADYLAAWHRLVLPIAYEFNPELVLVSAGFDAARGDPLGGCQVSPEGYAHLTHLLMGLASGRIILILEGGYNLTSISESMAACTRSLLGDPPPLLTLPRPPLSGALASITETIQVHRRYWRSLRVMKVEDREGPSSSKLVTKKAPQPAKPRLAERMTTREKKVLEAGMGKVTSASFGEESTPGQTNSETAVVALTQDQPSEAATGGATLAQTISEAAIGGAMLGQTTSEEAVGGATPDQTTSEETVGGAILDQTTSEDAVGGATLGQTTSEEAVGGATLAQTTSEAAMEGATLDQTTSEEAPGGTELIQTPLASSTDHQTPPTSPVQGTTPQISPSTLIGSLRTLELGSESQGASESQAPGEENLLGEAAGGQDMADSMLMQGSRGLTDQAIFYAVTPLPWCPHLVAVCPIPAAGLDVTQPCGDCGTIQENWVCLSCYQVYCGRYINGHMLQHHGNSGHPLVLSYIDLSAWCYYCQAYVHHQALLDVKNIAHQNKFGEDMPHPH
Test: HDAC6 enzyme activity inhibition assay (in vitro, fluorimetric)
Type: biochemical
Details: HDAC6 selectivity over HDAC1
Could you label it TRUE if measured HDAC6 selectivity (fold) is 30 fold or higher, and FALSE otherwise?

Some solved entries appear below for comparison.
{"structure-string": "C[C@@H]1CN(C(=O)c2cccc(C3=CCC(C)(C)CC3)c2)C[C@H](C)N1Cc1ccc(C(=O)NO)cc1", "class": "FALSE"}
{"structure-string": "C[C@@H]1CN(Cc2ccccc2-c2ccncc2)C[C@H](C)N1Cc1ccc(C(=O)NO)cc1", "class": "FALSE"}
{"structure-string": "C[C@@H]1CN(Cc2ccc(C(=O)NO)cc2)C[C@H](C)N1C(=O)c1cccc(CN2CCCCC2)c1", "class": "FALSE"}
{"structure-string": "C[C@@H]1CN(Cc2ccc(C(=O)NO)cc2)C[C@H](C)N1C(=O)c1cccs1", "class": "TRUE"}
{"structure-string": "CCCCN1C[C@@H](C)N(Cc2ccc(C(=O)NO)cc2)[C@@H](C)C1", "class": "TRUE"}

Task: API: above_or_equal(metric=HDAC6 selectivity (fold), cutoff=30 fold) for item CCN(CC)Cc1cccc(CN2C[C@@H](C)N(Cc3ccc(/C=C/C(=O)NO)cc3)[C@@H](C)C2)c1
Output: FALSE

Task: Next up: C[C@@H]1CN(Cc2ccc(C(=O)NO)cc2)C[C@H](C)N1C(=O)c1ccccn1
Output: TRUE

Task: Next up: CC(=O)N1CC=C(c2ccccc2CN2[C@H](C)CN(Cc3ccc(C(=O)NO)cc3)C[C@@H]2C)CC1
Output: TRUE

Task: Next up: CC(C)C(=O)N1[C@H](C)CN(Cc2ccc(C(=O)NO)cc2)C[C@@H]1C
Output: TRUE

Task: Next up: C[C@@H]1CN(Cc2cc(F)c(F)cc2F)C[C@H](C)N1Cc1ccc(C(=O)NO)cc1
Output: FALSE
